The reported numbers originate from ChEMBL document CHEMBL1128716.

- PROTOCOL_TEXT: Displacement of [3H]BTX from sodium channel
- Parameters: species or system Canis lupus familiaris
For each entry below, report its IC50 value.
Supply the numeric figure in nM, leaving out any unit text.

Q) Reported IC50 for CSc1ccc([C@H]2N=C(OCc3ccc(NS(C)(=O)=O)cc3)N(C)Cc3ccccc32)cc1.Cl : what is it?
A) 1000

Q) Reported IC50 for CN1Cc2ccccc2[C@H](c2ccccc2)N=C1OCc1ccc(NS(C)(=O)=O)cc1.O=C(O)/C=C/C(=O)O : what is it?
A) 6900

Q) Reported IC50 for CN1Cc2ccccc2[C@@H](c2ccc(F)cc2F)N=C1CCc1ccc(NS(C)(=O)=O)cc1.Cl : what is it?
A) 2500

Q) Reported IC50 for CN1Cc2ccccc2[C@H](c2ccc(F)cc2F)N=C1CCc1ccc(NS(C)(=O)=O)cc1.Cl : what is it?
A) 3600

Q) Reported IC50 for CSc1ccc([C@@H]2N=C(OCc3ccc(NS(C)(=O)=O)cc3)N(C)Cc3ccccc32)cc1.Cl : what is it?
A) 3000
